Consider the following compounds and their measured TGI readings.
Test system: CCRF-CEM leukemia
Test: NCI tumour cell line growth inhibition, 48 h
recorded_endpoint: TGI

{"columns": ["compound", "recorded_endpoint", "measured_value"],
 "data": [
  ["CC(C)=Cc1cc(CCC/C(C)=C/Cc2c(O)cc(C)c(C(=O)O)c2O)co1", "TGI", "> 100 µM"],
  ["COC(=O)[C@@H](NS(=O)(=O)CC12CCC(CC1)C2(C)C)C(C)(C)C", "TGI", "> 100 µM"],
  ["CCOC(=O)c1c(N2CCCC2)[nH]c(=O)c(C(c2ccc(N(C)C)cc2)c2c(O)c(C(=O)OCC)c(N3CCCC3)[nH]c2=O)c1O", "TGI", "> 100 µM"],
  ["O=c1[nH]nc(-c2ccccc2)c2[nH]c3c(c12)Cc1ccccc1-3", "TGI", "> 100 µM"],
  ["COc1cccc(NC(=O)CC(=O)n2nc(-c3ccccc3)c(N=Nc3ccc(Cl)cc3)c2-c2ccccc2)c1", "TGI", "> 39.6 µM"],
  ["CC(C)C[C@H](NC(=O)Cn1cccc(CNC(=O)c2ccccc2)c1=O)B(O)O", "TGI", "> 20.1 µM"],
  ["O=C1CC(c2cccc(Cl)c2)Oc2ccccc21 (stereo not given)", "TGI", "48.4 µM"],
  ["C=CCC12CC(=O)CCC1c1ccc(OC)cc1C2=O (stereo not given)", "TGI", "> 100 µM"],
  ["CC1CCCC(C#N)(NOC2=NCCN2)C1 (stereo not given)", "TGI", "> 100 µM"],
  ["CC1=NN(c2ccccc2)C(=O)C12[C@H](c1ccccc1)C2(C#N)C#N (stereo not given in full)", "TGI", "2.78 µM"]
]}

----------
System: ACHN renal
Experiment: NCI tumour cell line growth inhibition, 48 h
Where a SMILES comes first, the peptide text is derived from it. The star is where a group is joined. Boc = CC(C)(C)OC(=O)*
recorded_endpoint: TGI

{"columns": ["compound", "measured_target", "recorded_endpoint", "measured_value"],
 "data": [
  ["COc1cc2c(cc1OC)C(C(CBr)CBr)N(C1CCCC1)CC2 (stereo not given)", "ACHN renal", "TGI", "> 100 µM"],
  ["Cc1nc2ccc(Br)cc2c(=O)n1-c1ccc(N)cc1", "ACHN renal", "TGI", "> 100 µM"],
  ["COC(=O)C(Cc1c[nH]c2ccccc12)NC(=O)C(Cc1c[nH]c2ccccc12)NC(=O)C(Cc1c[nH]c2ccccc12)NC(=O)C(Cc1c[nH]c2ccccc12)NC(=O)C(Cc1c[nH]c2ccccc12)NC(=O)C(Cc1c[nH]c2ccccc12)NC(=O)C(Cc1c[nH]c2ccccc12)NC(=O)OC(C)(C)C (stereo not given) (Boc-WWWWWWW-OMe; configuration not given here)", "ACHN renal", "TGI", "> 100 µM"],
  ["Cc1ccc(-n2nncc2[Si](C)(C)C)s1", "ACHN renal", "TGI", "> 100 µM"],
  ["CN1CCN(Cc2ccc(NC(=O)c3[nH]ncc3Nc3ncnc4[nH]ccc34)cc2)CC1", "ACHN renal", "TGI", "10 µM"],
  ["CCC1CCCCN1CC(C(C)=O)C(c1ccccc1)c1c(O)c2ccccc2oc1=O (stereo not given)", "ACHN renal", "TGI", "> 100 µM"],
  ["O=C1c2ccccc2C2(c3ccc(F)cc3)NCCN12 (stereo not given)", "ACHN renal", "TGI", "> 100 µM"],
  ["Cc1cc(=O)[nH]c(N/N=C/c2ccccc2O)n1", "ACHN renal", "TGI", "> 100 µM"],
  ["CN1CCN(C(=O)c2ccc(NC(=O)Nc3ccc(-c4nc(N5CCOCC5)c5cccn5n4)cc3)cc2)CC1", "ACHN renal", "TGI", "12.8 µM"],
  ["O=C1OC(=O)C23CSCC12C1C=CC3O1 (stereo not given)", "ACHN renal", "TGI", "> 100 µM"],
  ["CC(/C=C/C(=O)c1sc(C(N)=S)nc1C)=C\\c1ccccc1", "ACHN renal", "TGI", "> 100 µM"],
  ["OCCCCC#Cc1ccccc1C#Cc1cccnc1", "ACHN renal", "TGI", "> 100 µM"],
  ["CCc1ccc2oc(=O)ccc2c1", "ACHN renal", "TGI", "> 100 µM"],
  ["O=c1[nH]n(CCc2ccccc2CCl)c2ccc([N+](=O)[O-])cc12", "ACHN renal", "TGI", "> 100 µM"],
  ["CC(=O)/C=C/c1ccccc1", "ACHN renal", "TGI", "> 100 µM"],
  ["O=C1CS/C(=N/S(=O)(=O)c2ccc(N3N=C4c5ccccc5CC4C3c3cccs3)cc2)N1C(=O)c1ccccc1 (stereo not given)", "ACHN renal", "TGI", "> 100 µM"],
  ["O=C1NC(=O)C(c2cccc(Cl)c2)=C1Nc1ccc(Cl)c(C(=O)O)c1", "ACHN renal", "TGI", "> 25 µM"],
  ["CCCC(O)c1cn(-c2cccc(S(=O)(=O)O)c2)nn1 (stereo not given)", "ACHN renal", "TGI", "> 100 µM"],
  ["Cc1ccc(N=C/C=C(\\Nc2ccc(C)cc2)c2ccc3ccccc3c2)cc1", "ACHN renal", "TGI", "7.77 µM"],
  ["COc1ccc(-c2cc3ccccc3[nH]c2=O)cc1OC", "ACHN renal", "TGI", "> 100 µM"]
]}

----------
System: MDA-MB-231 breast
Assay: NCI tumour cell line growth inhibition, 48 h; in the data active = GI50 below about 0.43 µM; inactive = the rest
Labels: t for active, f for inactive

{"columns": ["molecule", "measured_target", "class_label"],
 "data": [
  ["N#C/C(=C/N1CCN(C(=O)c2ccco2)C1=S)C(=O)Nc1ccc(Cl)cc1", "MDA-MB-231 breast", "f"],
  ["CN1CCN(CCCOc2ccc3nc(Nc4ccc(F)c(F)c4)ccc3c2)CC1", "MDA-MB-231 breast", "f"],
  ["Cc1ccc(S(=O)(=O)n2cc([C@@]3(O)C[C@H](CSC#N)OC3=O)c3ccccc32)cc1", "MDA-MB-231 breast", "f"],
  ["COc1ccc2nc(C)cc(Sc3nc4ccccc4s3)c2c1", "MDA-MB-231 breast", "f"],
  ["CC1=C(CO)C(=O)O[C@@H]([C@@H](C)[C@H]2CC[C@H]3[C@@H]4C[C@H]5O[C@]56[C@@H](O)C=CC(=O)[C@]6(C)[C@H]4CC[C@]23C)C1", "MDA-MB-231 breast", "f"],
  ["CN(C)CCN1C(=O)c2cccc3c(/C=C/CN4C(=O)c5cccc6cccc(c56)C4=O)ccc(c23)C1=O", "MDA-MB-231 breast", "f"],
  ["COc1ccc(Nc2ncnc3ccc(-c4cncc(NS(C)(=O)=O)c4)cc23)cc1Cl", "MDA-MB-231 breast", "f"],
  ["C=CC1C(CC2OC(CO)C(O)C(O)C2O)OC=C2C(=O)OCCC21O (centres undefined)", "MDA-MB-231 breast", "f"],
  ["N#CC1=C(N)NC(N2CCOCC2)=NC12Nc1ccccc1O2 (centres undefined)", "MDA-MB-231 breast", "f"],
  ["CCN1CCN(c2cc(C(=O)Nc3cccc(Nc4ccc5c(OC)cccc5n4)c3)cc(C(F)(F)F)c2)CC1", "MDA-MB-231 breast", "f"],
  ["CN1CCN(Cc2ccc(NC(=O)c3[nH]ncc3Nc3ncnc4[nH]ccc34)cc2)CC1", "MDA-MB-231 breast", "t"],
  ["Cc1cc(=O)[nH]c(N/N=C/c2ccccc2O)n1", "MDA-MB-231 breast", "f"],
  ["CC12CCC(=O)C(O1)C1C(=O)c3ccc4c(ccc5ccccc54)c3C(=O)C12 (centres undefined)", "MDA-MB-231 breast", "f"],
  ["O=C1CS/C(=N/S(=O)(=O)c2ccc(N3N=C4c5ccccc5CC4C3c3cccs3)cc2)N1C(=O)c1ccccc1 (centres undefined)", "MDA-MB-231 breast", "f"]
]}

----------
Overview of recorded TGI for various molecules
Test system: SF-539 CNS
Assay: NCI tumour cell line growth inhibition, 48 h

{"columns": ["item_smiles", "TGI"],
 "data": [
  ["Cc1cc2c(=O)c3ccc(Cl)cc3[nH]c2c(C(N)=O)c1C", "> 100 µM"],
  ["FC(F)c1ncc(-c2ccc(C(F)(F)F)cc2)c(NC2CCCCCC2)n1", "> 10 µM"],
  ["Cc1c(Nc2nccc3cc(CN4CC[C@@H](O)C4)cnc23)cccc1-c1cccc(-c2nc3cc(CN4CC[C@@H](C(=O)O)C4)cc(C#N)c3o2)c1C", "28.1 µM"],
  ["COc1ccc(/C=C2\\CCCc3ccccc3C2=O)cc1", "5.11 µM"],
  ["Cc1nc2ccc(Cl)cc2c2c1CCO2", "> 100 µM"]
]}

Data provenance is PubChem BioAssay (NCI).
